B1: ZNF263 (parent)
chain: PEASHLRFRRFRFQEAAGPREALS

variants of: B1; assay: protein stability index of a GFP-peptide fusion (GPS, HEK-293T) (PSI 1-6); higher = more stable; conditions: c terminus: a fixed tail appended;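 also: lentivirally expressed fusions sorted by FACS into six bins by GFP to DsRed ratio, PSI derived from sequencing read proportions per bin multiplied by bin number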
# Lookup of reported protein stability index keyed by entry
Please reply with the number alone, leaving off any unit.

Worked cases, protein stability index given:
{"sequence-variant": "F11S", "measured": 3.53}
{"sequence-variant": "P19F", "measured": 1.76}
{"sequence-variant": "Q14V", "measured": 2.5}
{"sequence-variant": "F8M", "measured": 2.8}
{"sequence-variant": "E15C", "measured": 2.31}

Entry S24L , protein stability index reported as 2.65

protein stability index recorded for this variant, L23H , is 3.05

// L23T : protein stability index value = 2.84

# protein stability index (variant: E15A ) is 2.73

Measured protein stability index of L23P : 2.9

Record L23S . Reported protein stability index: 3.28
